These measurements were taken from a melting point compilation (Tetko et al.).

Listing of entries alongside the reported melting point.

Solved entries:
{"COMPOUND": "Cn1nnc2cc(C(=O)O)cnc21", "melting point": "229 to 231 °C"}
{"COMPOUND": "Cc1cc2cc(Br)ccc2s1", "melting point": "69 to 71 °C"}
{"COMPOUND": "Cc1cc(N)n(C2CCOCC2)n1", "melting point": "177 to 179 °C"}
{"COMPOUND": "Nc1cc(F)c(Br)cc1[N+](=O)[O-]", "melting point": "166 to 168 °C"}
{"COMPOUND": "NS(=O)(=O)c1ccc(O)c(C(=O)O)c1", "melting point": "233 to 235 °C"}
{"COMPOUND": "O=C(O)c1ccccc1OCc1cscn1", "melting point": "117 to 121 °C"}

Now let's try a different one.
Quick one: melting point for NC(=O)CC(NS(=O)(=O)c1ccccc1F)C(=O)O (configuration not stated) ?
165 to 167 °C

---

Listing of entries alongside the reported melting point.

{"MOLECULE": "O=C(O)c1cc(Cl)ccc1NS(=O)(=O)c1ccccc1", "melting point": "184 to 186 °C"}

Now let's try a different one.
Quick one: melting point for NC(=O)Cn1cc(N)cn1 ?
159 to 161 °C

---

PROPERTY_NAME: melting point

{"COMPOUND": "COc1ccc2cc(C=CC#N)ccc2c1", "READING": "124 to 126 °C"}
{"COMPOUND": "NS(=O)(=O)C1CCCCC1", "READING": "91 to 93 °C"}
{"COMPOUND": "CC(O)(CN)c1cccs1 (centres undefined)", "READING": "55 to 57 °C"}
{"COMPOUND": "CC(C(N)=NO)n1ccnc1 (centres undefined)", "READING": "151 to 153 °C"}
{"COMPOUND": "NCc1ccccc1N1CCCC(C(N)=O)C1 (centres undefined)", "READING": "97 to 99 °C"}

Quick one: melting point for Cc1cc(C)c(C#N)c(N2CCCC2)n1 ?
54 to 56 °C

Quick one: melting point for O=C(O)c1cc(O)cc(OCC(F)(F)F)c1 ?
165 to 167 °C

Quick one: melting point for NC(=O)c1c[nH]nc1-c1ccccc1 ?
187 to 189 °C

Quick one: melting point for Nc1cccc(N2C(=O)CNC2=O)c1 ?
156 to 158 °C

Quick one: melting point for COC(=O)c1cccc(-c2nc(C)cs2)c1 ?
52 to 54 °C

Quick one: melting point for COC(=O)c1nc2ccccc2[nH]1 ?
189 to 191 °C

Quick one: melting point for CC(NC(=O)CCl)c1ccc2ccccc2c1 (centres undefined) ?
201 to 203 °C

Quick one: melting point for COC(=O)c1cc(Cl)ccc1S(=O)(=O)Cl ?
74 to 76 °C

Quick one: melting point for CS(=O)(=O)Nc1ccc(O)cc1 ?
158 to 160 °C

---

Listing of entries alongside the reported melting point.

Solved entries:
{"COMPOUND": "N#Cc1cnoc1N", "melting point": "143 to 145 °C"}
{"COMPOUND": "Nc1nc(-c2cccc(C(F)(F)F)c2)n[nH]1", "melting point": "221 to 223 °C"}

Quick one: melting point for Cn1cc(N)cc(Br)c1=O ?
159 to 161 °C

Quick one: melting point for CCCCOc1c(Cl)cc(C(=O)O)cc1OCC ?
89 to 91 °C

Quick one: melting point for ClCc1cc(Cl)cc2c1OC(c1ccccc1)OC2 (configuration not stated) ?
111 to 113 °C

Quick one: melting point for CN(C)c1ncnc2cc(C(=O)O)ccc12 ?
323 to 325 °C

Quick one: melting point for NN=c1ncc(F)c[nH]1 ?
119 to 121 °C

Quick one: melting point for CSc1nn(-c2ccccc2)c(N)c1C#N ?
135 to 137 °C
